Test: PK parameters in male SD rats
Assay type: in vivo
Details: rat, in vivo, IV 2 mg/kg, read-out: Cl-obs
readout_type: clearance (mL/min/kg)

[
  {
    "compound": "CC1(C)[C@H](NC(=O)c2ccc(N3CCN(C4CN(c5ccc6c(c5)C(=O)N(C5CCC(=O)NC5=O)C6=O)C4)CC3)cc2)C(C)(C)[C@H]1Oc1ccc(C#N)c(Cl)c1 (some centres unmarked) [Cpd. No. 113]",
    "val": 3.1
  },
  {
    "compound": "CC1(C)[C@H](NC(=O)c2ccc(N3CCN(C4CCN(c5ccc6c(c5)C(=O)N(C5CCC(=O)NC5=O)C6=O)CC4)CC3)cc2)C(C)(C)[C@H]1Oc1ccc(C#N)c(Cl)c1 (some centres unmarked) [Cpd. No. 114]",
    "val": 7.7
  }
]
